Experiment: Solubility in water of the compound at room temperature and at 60° C.
Type: physicochemical
Details: 60° C.; mass percentage

| molecule | solubility in water |
| --- | --- |
| CCCCC(CC)CNc1ccc2c3c1C(=O)c1ccccc1-c3c(C(C)=O)c(=O)n2CCCC (stereo not drawn) [Compound (1)] | less than 1% |
| CCCCC(CC)CNc1ccc2c3c1C(=O)c1ccccc1-c3c(C(=O)c1ccccc1)c(=O)n2CCCC (stereo not drawn) [Compound (4)] | less than 1% |
| CCCCNc1ccc2c3c1C(=O)c1ccccc1-c3c(C(=O)c1ccccc1)c(=O)n2CCCC [Compound (21)] | less than 1% |
| CCCCC(CC)CNc1ccc2c3c1C(=O)c1ccccc1-c3c(C(=O)c1ccccc1)c(=O)n2C (stereo not drawn) [Compound (14)] | less than 1% |
| CCCCC(CC)CNc1ccc2c3c1C(=O)c1ccccc1-c3c(C(=O)OCC)c(=O)n2CC(CC)CCCC (stereo not drawn) [Compound (9)] | less than 1% |
| CCCCC(CC)Cn1c(=O)c(C(=O)c2ccccc2)c2c3c(c(NC4CCCCC4)ccc31)C(=O)c1ccccc1-2 (stereo not drawn) [Compound (15)] | less than 1% |
| CCCCC(CC)CNc1ccc2c3c1C(=O)c1ccccc1-c3c(C(=O)c1ccc(OC)cc1)c(=O)n2CCCC (stereo not drawn) [Compound (6)] | less than 1% |
| CCCCOCCCNc1ccc2c3c1C(=O)c1ccccc1-c3c(C(=O)c1ccccc1)c(=O)n2CC(CC)CCCC (stereo not drawn) [Compound (10)] | less than 1% |
| CCCCC(CC)CNc1ccc2c3c1C(=O)c1ccccc1-c3c(C(=O)c1ccccc1)c(=O)n2CC(CC)CCCC (stereo not drawn) [Compound (8)] | less than 1% |

###

Listing of entries alongside the reported solubility.
Test: Evaluation of solubility of compound for solvent (30 mg in 0.7 mL, visually observed)
Assay type: physicochemical
Details: organic solvent or mixture, thermodynamic from solid; 30 mg in 0.7 mL toluene, room temperature, visual; read-out: Solubility Toluene

| query_smiles | solubility |
| --- | --- |
| Cn1c(=O)cc2c3c(c(Nc4ccccc4)ccc31)C(=O)c1ccccc1-2 | < 42.9 mg/mL |
| Cc1ccc(Nc2ccc3c4c(cc(=O)n3C)-c3ccccc3C(=O)c24)cc1 | < 42.9 mg/mL |
| CCCCn1c(=O)c(C(=O)c2ccccc2)c2c3c(c(Nc4ccc(C)cc4)ccc31)C(=O)c1ccccc1-2 | < 42.9 mg/mL |

###

Assay: Evaluation of solubility of compound for solvent (30 mg in 0.7 mL, visually observed)
Format: physicochemical
Conditions: organic solvent or mixture, thermodynamic from solid; 30 mg in 0.7 mL ethyl acetate, room temperature, visual; read-out: Solubility Ethyl acetate
Experimental: 30 mg of each of water-insoluble coloring matter compounds (1), (4), (6), (8) to (10), (14), (15), (20), and (21) and comparative compounds (1) to (3) was dissolved at room temperature in 0.7 mL of toluene, 0.7 mL of methanol, 0.7 mL of ethyl acetate, and 0.7 mL of chloroform, respectively. These solutions were visually observed, and the solubility of the compound for the solvent was evaluated. A: completely dissolved (solubility is very good) B: slightly suspended (solubility is good) […]

| query_smiles | solubility |
| --- | --- |
| Cn1c(=O)cc2c3c(c(Nc4ccccc4)ccc31)C(=O)c1ccccc1-2 | < 42.9 mg/mL |
| Cc1ccc(Nc2ccc3c4c(cc(=O)n3C)-c3ccccc3C(=O)c24)cc1 | < 42.9 mg/mL |
| CCCCn1c(=O)c(C(=O)c2ccccc2)c2c3c(c(Nc4ccc(C)cc4)ccc31)C(=O)c1ccccc1-2 | < 42.9 mg/mL |
